test: Human HepG2 cell viability assay in 384 well format; format: toxicity, cell-based; set-up: dose 125 nL, time 70.5 hour; concentration not given beside the values; details: HepG2 cells, read-out: Inhibition
Overview of recorded cytotoxicity at 70.5 h for various molecules
parameter: cytotoxicity at 70.5 h

molecule=N#Cc1cccc(OCc2ccoc2C(=O)N2CCCCC2)c1 parameter="cytotoxicity at 70.5 h" observed_measurement=3.19%
molecule=CC(C)=CCN1C[C@H]2CC[C@@H]1CN(C(=O)c1c[nH]c(=O)c(Cl)c1)C2 parameter="cytotoxicity at 70.5 h" observed_measurement=-1.3%
molecule=CN(CCCOc1ccc(F)cc1)Cc1nc2c(cnn2C)c(=O)[nH]1 parameter="cytotoxicity at 70.5 h" observed_measurement=4.27%
molecule=COCCN1CCn2c(nc3cc(C(=O)NC(C)C)ccc32)C1 parameter="cytotoxicity at 70.5 h" observed_measurement=-6.96%
molecule="Cc1ccc2c(c1)N(C(=O)c1cc[nH]c(=O)c1)CC(C)O2 (stereo unspecified)" parameter="cytotoxicity at 70.5 h" observed_measurement=-1.21%
molecule=CCOc1ccc(S(=O)(=O)N(CCOC)Cc2ccoc2)cc1F parameter="cytotoxicity at 70.5 h" observed_measurement=-11.6%
molecule=CCc1cnc(N2Cc3cnc(C(C)(C)C)nc3C2)nc1 parameter="cytotoxicity at 70.5 h" observed_measurement=-3.57%
molecule=NC(=O)NC(=O)CCN1CCN(CC2CC2)c2ccccc21 parameter="cytotoxicity at 70.5 h" observed_measurement=31.2%
molecule=Cc1nnsc1CN1C[C@@H]2CC[C@H](C1)N(Cc1c(C)noc1C)C2=O parameter="cytotoxicity at 70.5 h" observed_measurement=-0.902%
molecule=c1cnc(N2CCC(c3cc4cccnc4[nH]3)CC2)nc1 parameter="cytotoxicity at 70.5 h" observed_measurement=-5.37%
molecule="O=C1Nc2ccccc2CC12CCN(CCO)C2 (stereo unspecified)" parameter="cytotoxicity at 70.5 h" observed_measurement=-6.04%
